- System Under Test: T1, human CD33 antigen (human, UniProt P20138 18-259, limits assumed)
- T1 construct: whole entry named; also called Siglec-3
- T1 sequence (P20138 18-259 limits assumed): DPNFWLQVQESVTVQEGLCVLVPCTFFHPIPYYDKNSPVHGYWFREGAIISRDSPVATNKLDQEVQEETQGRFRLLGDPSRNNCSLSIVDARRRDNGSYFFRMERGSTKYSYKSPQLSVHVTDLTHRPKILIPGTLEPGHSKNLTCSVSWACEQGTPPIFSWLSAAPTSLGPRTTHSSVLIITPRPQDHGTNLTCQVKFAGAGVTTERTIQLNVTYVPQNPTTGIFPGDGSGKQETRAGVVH
- Test Summary: SPR (Biacore T200), 37 C, scFv-Fc, 10 uM MTX; KD estimated, rate constants not determined
pKd reference
Hey, just a heads up that pKd is the negative log base 10 of the concentration in molar.

Worked examples follow.
Binder	Readout Value
P03_A01 scFv-Fc fusion (scFv, V domains shown, Tested as scFv-Fc fusion) VH: QVQLVESGGGLVQAGGSLRLSCAASRRSSRSWAMHWVRQAPGKGLEWVAVISYDGRLKYYADSVKGRFTISRDNAEYLVYLQMNSLRAEDTAVYYCAAETGSVGLDYWGQGTLVTVSS VL: DIQMTQSPSSLSASVGDRVTITCRASQGISTYLNWYQQKPGKAPKLLIYGATSLESGVPSRFSGSGSGTDFTLTISSLQPEDFATYYCQQGYSQGTFGQGTKVEIK	5.37
P02_E11 scFv-Fc fusion (scFv, V domains shown, Tested as scFv-Fc fusion) VH: QVQLVESGGGLVQAGGSLRLSCAASRRSSRSWAMHWVRQAPGKGLEWVAVISYDGRLKYYADSVKGRFTISRDNAEYLVYLQMNSLRAEDTAVYYCAAEASTDNGLDYWGQGTLVTVSS VL: DIQMTQSPSSLSASVGDRVTITCRASQTISRHLNWYQQKPGKAPKLLIYSASSLASGVPSRFSGSGSGTDFTLTISSLQPEDFATYYCQQSHSAGTFGQGTKVEIK	4.84
P01_A09 scFv-Fc fusion (scFv, V domains shown, Tested as scFv-Fc fusion) VH: QVQLVESGGGLVQAGGSLRLSCAASRRSSRSWAMHWVRQAPGKGLEWVAVISYDGRLKYYADSVKGRFTISRDNAEYLVYLQMNSLRAEDTAVYYCAAERPTSDGSTGGMDVWGQGTLVTVSS VL: DIQMTQSPSSLSASVGDRVTITCRASQSISSYLNWYQQKPGKAPKLLIYGASTLQSGVPSRFSGSGSGTDFTLTISSLQPEDFATYYCQQSYSSGTFGQGTKVEIK	5.88

// next item, pKd requested
The binder listed as P02_H01 scFv-Fc fusion (scFv, V domains shown, Tested as scFv-Fc fusion) VH: QVQLVESGGGLVQAGGSLRLSCAASRRSSRSWAMHWVRQAPGKGLEWVAVISYDGRLKYYADSVKGRFTISRDNAEYLVYLQMNSLRAEDTAVYYCAAGSGGGDGLDVWGQGTLVTVSS VL: DIQMTQSPSSLSASVGDRVTITCRASQTISSYLNWYQQKPGKAPKLLIYSSSTLQGGVPSRFSGSGSGTDFTLTISSLQPEDFATYYCQQSYSSGTFGQGTKVEIK has a reported pKd of 5.36
